# credit: paper PMC5363373

- assay.details: In vitro metal competition study
- Format: physicochemical
- experimental.context: Zn2+, PBS pH 7.4, 37 C, 2 h
measure: % Intact of 89Zr-complexes (%)
Give bare numbers, in %.

>>> df
                                   compound  uom  quantitative_readout
0  CC(=O)N1CCCCCNC(=O)CCC(=O)N2CCCCCNC(=O)CCC(=O)N(CCCCCN)[O][89Zr+]([O]1)[O]2 [89Zr-DFO, reference compound]    %                  99.5
1  NC(=O)CN1CCN(CC(N)=O)CCN(CC(N)=O)CCN(CC(N)=O)CC1.[89Zr+4] [89Zr-DOTAM]    %                  94.1
2  O=P1(O)CN2CCN3CCN4CCN(CC2)CP(=O)(O)[O][89Zr]([O]1)([O]P(=O)(O)C3)[O]P(=O)(O)C4 [89Zr-DOTP]    %                  99.0

We now examine a further compound.
Need % Intact of 89Zr-complexes, item O=C1CN2CCN3CCN4CCN(CC2)CC(=O)[O][89Zr]([O]1)([O]C(=O)C3)[O]C(=O)C4 [89Zr-DOTA]
100

* * *

- assay.details: In vitro EDTA challenge study
- Type: physicochemical
- experimental.context: EDTA 100-fold, pH 7.0, 37 C, 1 h
Would you kindly list % Intact of 89Zr-complexes for each of these compounds?
Give bare numbers, in %.

Consider the following illustrative entries.
>>> df
                                   compound                     measure  uom  quantitative_readout
0  O=P1(O)CN2CCN3CCN4CCN(CC2)CP(=O)(O)[O][89Zr]([O]1)([O]P(=O)(O)C3)[O]P(=O)(O)C4 [89Zr-DOTP]  % Intact of 89Zr-complexes    %                  99.8
1  NC(=O)CN1CCN(CC(N)=O)CCN(CC(N)=O)CCN(CC(N)=O)CC1.[89Zr+4] [89Zr-DOTAM]  % Intact of 89Zr-complexes    %                  99.0
2  CC(=O)N1CCCCCNC(=O)CCC(=O)N2CCCCCNC(=O)CCC(=O)N(CCCCCN)[O][89Zr+]([O]1)[O]2 [89Zr-DFO, reference compound]  % Intact of 89Zr-complexes    %                  96.6

We now examine a further compound.
Need % Intact of 89Zr-complexes, item O=C1CN2CCN3CCN4CCN(CC2)CC(=O)[O][89Zr]([O]1)([O]C(=O)C3)[O]C(=O)C4 [89Zr-DOTA]
100

* * *

- assay.details: In vitro metal competition study
- Type: physicochemical
- experimental.context: Gd3+, PBS pH 7.4, 37 C, 7 d
measure: % Intact of 89Zr-complexes (%)
Numbers only, in %.

Consider the following illustrative entries.
                                   molecule                     measure  quantitative_readout
0  O=P1(O)CN2CCN3CCN4CCN(CC2)CP(=O)(O)[O][89Zr]([O]1)([O]P(=O)(O)C3)[O]P(=O)(O)C4 [89Zr-DOTP]  % Intact of 89Zr-complexes                  91.7
1  NC(=O)CN1CCN(CC(N)=O)CCN(CC(N)=O)CCN(CC(N)=O)CC1.[89Zr+4] [89Zr-DOTAM]  % Intact of 89Zr-complexes                  86.3
2  O=C1CN2CCN3CCN4CCN(CC2)CC(=O)[O][89Zr]([O]1)([O]C(=O)C3)[O]C(=O)C4 [89Zr-DOTA]  % Intact of 89Zr-complexes                   100

Need % Intact of 89Zr-complexes, item CC(=O)N1CCCCCNC(=O)CCC(=O)N2CCCCCNC(=O)CCC(=O)N(CCCCCN)[O][89Zr+]([O]1)[O]2 [89Zr-DFO, reference compound]
96.8

* * *

- assay.details: In vitro EDTA challenge study
- Type: physicochemical
- experimental.context: EDTA 100-fold, pH 5.0, 37 C, 3 d
Would you kindly list % Intact of 89Zr-complexes for each of these compounds?
Give your result as the value with the unit written after it.

Consider the following illustrative entries.
>>> df
                                   compound       result
0  CC(=O)N1CCCCCNC(=O)CCC(=O)N2CCCCCNC(=O)CCC(=O)N(CCCCCN)[O][89Zr+]([O]1)[O]2 [89Zr-DFO, reference compound]   5.4 ± 0.3%
1  O=C1CN2CCN3CCN4CCN(CC2)CC(=O)[O][89Zr]([O]1)([O]C(=O)C3)[O]C(=O)C4 [89Zr-DOTA]         100%
2  O=P1(O)CN2CCN3CCN4CCN(CC2)CP(=O)(O)[O][89Zr]([O]1)([O]P(=O)(O)C3)[O]P(=O)(O)C4 [89Zr-DOTP]  84.3 ± 0.7%

We now examine a further compound.
Need % Intact of 89Zr-complexes, item NC(=O)CN1CCN(CC(N)=O)CCN(CC(N)=O)CCN(CC(N)=O)CC1.[89Zr+4] [89Zr-DOTAM]
67.6 ± 0.9%

* * *

- assay.details: In vitro EDTA challenge study
- Assay type: physicochemical
- experimental.context: EDTA 500-fold, pH 7.0, 37 C, 1 d
measure: % Intact of 89Zr-complexes (%)
Answers are plain numbers, in %.

>>> print(df.to_string())
                                   compound                     measure  quantitative_readout
0  O=C1CN2CCN3CCN4CCN(CC2)CC(=O)[O][89Zr]([O]1)([O]C(=O)C3)[O]C(=O)C4 [89Zr-DOTA]  % Intact of 89Zr-complexes                   100
1  O=P1(O)CN2CCN3CCN4CCN(CC2)CP(=O)(O)[O][89Zr]([O]1)([O]P(=O)(O)C3)[O]P(=O)(O)C4 [89Zr-DOTP]  % Intact of 89Zr-complexes                  98.2
2  CC(=O)N1CCCCCNC(=O)CCC(=O)N2CCCCCNC(=O)CCC(=O)N(CCCCCN)[O][89Zr+]([O]1)[O]2 [89Zr-DFO, reference compound]  % Intact of 89Zr-complexes                  36.2

We now examine a further compound.
Need % Intact of 89Zr-complexes, item NC(=O)CN1CCN(CC(N)=O)CCN(CC(N)=O)CCN(CC(N)=O)CC1.[89Zr+4] [89Zr-DOTAM]
90.8

* * *

- assay.details: In vitro EDTA challenge study
- Type: physicochemical
- experimental.context: EDTA 1000-fold, pH 7.0, 37 C, 1 h
measure: % Intact of 89Zr-complexes

In [3]: df
Out[3]:
                                   molecule       result
0  CC(=O)N1CCCCCNC(=O)CCC(=O)N2CCCCCNC(=O)CCC(=O)N(CCCCCN)[O][89Zr+]([O]1)[O]2 [89Zr-DFO, reference compound]  68.3 ± 1.2%
1  O=C1CN2CCN3CCN4CCN(CC2)CC(=O)[O][89Zr]([O]1)([O]C(=O)C3)[O]C(=O)C4 [89Zr-DOTA]         100%
2  O=P1(O)CN2CCN3CCN4CCN(CC2)CP(=O)(O)[O][89Zr]([O]1)([O]P(=O)(O)C3)[O]P(=O)(O)C4 [89Zr-DOTP]  99.2 ± 0.1%

Need % Intact of 89Zr-complexes, item NC(=O)CN1CCN(CC(N)=O)CCN(CC(N)=O)CCN(CC(N)=O)CC1.[89Zr+4] [89Zr-DOTAM]
98.3 ± 0.1%

* * *

- assay.details: In vitro EDTA challenge study
- Assay type: physicochemical
- experimental.context: EDTA 100-fold, pH 7.0, 37 C, 1 d
measure: % Intact of 89Zr-complexes (%)
Numbers only, in %.

Consider the following illustrative entries.
>>> print(df.to_string())
                                   molecule                     measure  quantitative_readout
0  O=P1(O)CN2CCN3CCN4CCN(CC2)CP(=O)(O)[O][89Zr]([O]1)([O]P(=O)(O)C3)[O]P(=O)(O)C4 [89Zr-DOTP]  % Intact of 89Zr-complexes                  98.6
1  CC(=O)N1CCCCCNC(=O)CCC(=O)N2CCCCCNC(=O)CCC(=O)N(CCCCCN)[O][89Zr+]([O]1)[O]2 [89Zr-DFO, reference compound]  % Intact of 89Zr-complexes                  88.6

We now examine a further molecule.
Need % Intact of 89Zr-complexes, item O=C1CN2CCN3CCN4CCN(CC2)CC(=O)[O][89Zr]([O]1)([O]C(=O)C3)[O]C(=O)C4 [89Zr-DOTA]
100
